Condition Notes: in water, 308.2 K
Parameter: solubility (mole fraction)
Reply with the value as a number alone.

Answer with the recorded solubility (mole fraction) for the molecule listed here: C[C@]12CC[C@@H]3c4ccc(O)cc4CC[C@H]3[C@@H]1C[C@@H](O)[C@@H]2O
0.000191

----------
Condition Notes: in NMP, 293.2 K
solubility (mole fraction): recorded values
Reply with the value as a number alone.

[[record]]
smiles_text = "C[C@@H]1CC[C@@]2(OC1)O[C@H]1C[C@H]3[C@@H]4CC=C5C[C@@H](O)CC[C@]5(C)[C@H]4CC[C@]3(C)[C@H]1[C@@H]2C"
measured = 0.0118


Answer with the recorded solubility (mole fraction) for the compound listed here: C[C@]12CC[C@@H]3c4ccc(O)cc4CC[C@H]3[C@@H]1C[C@@H](O)[C@@H]2O
0.000415

----------
Condition Notes: in n-dodecane, 293.2 K
Parameter: solubility (mole fraction)
Reply with the value as a number alone.

[[record]]
smiles_text = "C[C@@H]1CC[C@@]2(OC1)O[C@H]1C[C@H]3[C@@H]4CC=C5C[C@@H](O)CC[C@]5(C)[C@H]4CC[C@]3(C)[C@H]1[C@@H]2C"
measured = 0.000266


Please look at the following molecule next.
Answer with the recorded solubility (mole fraction) for the molecule listed here: C[C@]12CC[C@@H]3c4ccc(O)cc4CC[C@H]3[C@@H]1C[C@@H](O)[C@@H]2O
0.00072

----------
solubility (mole fraction): recorded values
Condition Notes: in n-dodecane, 308.2 K
Reply with the value as a number alone.

[[record]]
smiles_text = "C[C@@H]1CC[C@@]2(OC1)O[C@H]1C[C@H]3[C@@H]4CC=C5C[C@@H](O)CC[C@]5(C)[C@H]4CC[C@]3(C)[C@H]1[C@@H]2C"
parameter = "solubility (mole fraction)"
measured = 0.000542


Please look at the following compound next.
Answer with the recorded solubility (mole fraction) for the compound listed here: C[C@]12CC[C@@H]3c4ccc(O)cc4CC[C@H]3[C@@H]1C[C@@H](O)[C@@H]2O
0.000956

----------
Condition Notes: in n-octanol, 308.2 K
Parameter: solubility (mole fraction)
Reply with the value as a number alone.

[[record]]
smiles_text = "C[C@@H]1CC[C@@]2(OC1)O[C@H]1C[C@H]3[C@@H]4CC=C5C[C@@H](O)CC[C@]5(C)[C@H]4CC[C@]3(C)[C@H]1[C@@H]2C"
measured = 0.0066


Please look at the following compound next.
Answer with the recorded solubility (mole fraction) for the compound listed here: C[C@]12CC[C@@H]3c4ccc(O)cc4CC[C@H]3[C@@H]1C[C@@H](O)[C@@H]2O
0.00868

----------
Condition Notes: in n-octane, 328.2 K
solubility (mole fraction): recorded values
Reply with the value as a number alone.

[[record]]
smiles_text = "C[C@]12CC[C@@H]3c4ccc(O)cc4CC[C@H]3[C@@H]1C[C@@H](O)[C@@H]2O"
parameter = "solubility (mole fraction)"
measured = 0.00186


Please look at the following compound next.
Answer with the recorded solubility (mole fraction) for the compound listed here: C[C@@H]1CC[C@@]2(OC1)O[C@H]1C[C@H]3[C@@H]4CC=C5C[C@@H](O)CC[C@]5(C)[C@H]4CC[C@]3(C)[C@H]1[C@@H]2C
0.000915

----------
Condition Notes: in n-dodecane, 298.2 K
Parameter: solubility (mole fraction)
Reply with the value as a number alone.

[[record]]
smiles_text = "C[C@]12CC[C@@H]3c4ccc(O)cc4CC[C@H]3[C@@H]1C[C@@H](O)[C@@H]2O"
parameter = "solubility (mole fraction)"
measured = 0.000779


Answer with the recorded solubility (mole fraction) for the molecule listed here: C[C@@H]1CC[C@@]2(OC1)O[C@H]1C[C@H]3[C@@H]4CC=C5C[C@@H](O)CC[C@]5(C)[C@H]4CC[C@]3(C)[C@H]1[C@@H]2C
0.000351
